- Tested on: CCRIS mutagenicity, Ames/micronucleus/aberration tests
- ASSAY NOTES: CCRIS mutagenicity studies
- CONDITION DESCRIPTION: Test System: AMES SALMONELLA TYPHIMURIUM; Strain/Indicator: YG1021; Metabolic Activation: NONE; Method: STANDARD PLATE
- Excerpt: The CCRIS database contains chemical records with carcinogenicity, mutagenicity, tumor promotion, and tumor inhibition test results. It was developed by the National Cancer Institute (NCI). Data are derived from studies cited in primary journals, current awareness tools, NCI reports, and other sources. Test results have been reviewed by experts in carcinogenesis and mutagenesis. CCRIS provides historical information from the years 1985 - 2011. It is no longer updated. […]
Calls of active or inactive are those of the source. The rule behind the calls is not given here.

[
  {
    "RECORD SMILES": "O=[N+]([O-])c1cc2cccc([N+](=O)[O-])c2c2ccccc12",
    "TARGET SYSTEM": "CCRIS mutagenicity, Ames/micronucleus/aberration tests",
    "mutagenic call": "active; positive"
  },
  {
    "RECORD SMILES": "O=[N+]([O-])c1cccc2c1ccc1ccccc12",
    "TARGET SYSTEM": "CCRIS mutagenicity, Ames/micronucleus/aberration tests",
    "mutagenic call": "active; positive"
  },
  {
    "RECORD SMILES": "O=[N+]([O-])c1ccc(Cl)c([N+](=O)[O-])c1",
    "TARGET SYSTEM": "CCRIS mutagenicity, Ames/micronucleus/aberration tests",
    "mutagenic call": "active; positive"
  }
]

---

- Test system: CCRIS mutagenicity, Ames/micronucleus/aberration tests
- ASSAY NOTES: CCRIS mutagenicity studies
- CONDITION DESCRIPTION: Test System: AMES SALMONELLA TYPHIMURIUM; Strain/Indicator: TA100; Metabolic Activation: HAMSTER, LIVER, S-9, AROCLOR 1254; Method: PREINCUBATION
Calls of active or inactive are those of the source. The rule behind the calls is not given here.

[
  {
    "COMPOUND": "O=[N+]([O-])c1ccc(Nc2ccc(Nc3ccccc3)c(S(=O)(=O)O)c2)c([N+](=O)[O-])c1",
    "mutagenic call": "active; positive"
  },
  {
    "COMPOUND": "CN(C)[C@@H]1C(=O)C(C(N)=O)=C(O)[C@@]2(O)C(=O)C3=C(O)c4c(O)cccc4[C@@](C)(O)[C@H]3[C@H](O)[C@@H]12",
    "mutagenic call": "inactive; negative"
  },
  {
    "COMPOUND": "[Li+]",
    "mutagenic call": "inactive; negative"
  },
  {
    "COMPOUND": "CCCCCCc1ccc(O)cc1O",
    "mutagenic call": "inactive; negative"
  },
  {
    "COMPOUND": "O=C1CCCCC1",
    "mutagenic call": "inactive; negative"
  },
  {
    "COMPOUND": "C=CCOC(=O)c1ccccc1C(=O)OCC=C",
    "mutagenic call": "inactive; negative"
  },
  {
    "COMPOUND": "C1CS1",
    "mutagenic call": "active; positive"
  },
  {
    "COMPOUND": "BrC(Br)Br",
    "mutagenic call": "inactive; negative"
  },
  {
    "COMPOUND": "O=C(O)c1ccc([N+](=O)[O-])cc1",
    "mutagenic call": "active; positive"
  },
  {
    "COMPOUND": "CC(=O)OC1CC(C)OC(C)O1 (stereo not given)",
    "mutagenic call": "active; positive"
  }
]

Reference source for all entries: PubChem BioAssay AID1259407
